Test system: SCID mice bearing twin HEK293-CCK2i4svR and wtHEK293 tumors
Test: Biodistribution in SCID mice bearing twin HEK293-CCK2i4svR and wtHEK293 xenografts
Assay type: in vivo
Settings: 24 h pi
Flag rule - Biodistribution, Heart less than 0.1 %IA/g flags Criterion met; the remaining entries get Criterion not met.

COMPOUND	ANSWER LABEL
CC(C)(C)C(=O)CN1C(=O)[C@H](NC(=O)Nc2cccc(C(=O)NCCOCCOCCOCCNC(=O)[C@H](CCC(=O)O)NC(=O)CCC(C(=O)O)N3CCN(CC(=O)[O-])CCN(CC(=O)[O-])CCN(CC(=O)[O-])CC3)c2)CN(C2CCCCC2)c2ccccc21.[177Lu+3] (stereo in doubt) [[^177Lu]Lu-GAS3]	Criterion met
CC(C)(C)C(=O)CN1C(=O)[C@H](NC(=O)Nc2cccc(C(=O)NCCOCCOCCOCCNC(=O)[C@H](CCC(=O)O)NC(=O)CN3CCN(CC(=O)[O-])CCN(CC(=O)[O-])CCN(CC(=O)[O-])CC3)c2)CN(C2CCCCC2)c2ccccc21.[177Lu+3] (stereo in doubt) [[^177Lu]Lu-GAS1]	Criterion not met
CC(C)(C)C(=O)CN1C(=O)[C@H](NC(=O)Nc2cccc(C(=O)NCCOCCOCCOCCNC(=O)[C@H](CCC(=O)O)NC(=O)CN3CCN(CC(=O)[O-])CCN(CC(=O)[O-])CCN(CC(=O)[O-])CC3)c2)CN(C2CCCCC2)c2ccccc21.[67Ga+3] (stereo in doubt) [[^67Ga]Ga-GAS1]	Criterion not met
CC(C)(C)C(=O)CN1C(=O)[C@H](NC(=O)Nc2cccc(C(=O)NCCOCCOCCOCCNC(=O)[C@H](CCC(=O)O)NC(=O)CCC(C(=O)[O-])N3CCN(CC(=O)[O-])CCN(CC(=O)[O-])CC3)c2)CN(C2CCCCC2)c2ccccc21.[67Ga+3] (stereo in doubt) [[^67Ga]Ga-GAS2]	Criterion met
CC(C)(C)C(=O)CN1C(=O)[C@H](NC(=O)Nc2cccc(C(=O)NCCOCCOCCOCCNC(=O)[C@@H](CCC(=O)O)NC(=O)CCC(C(=O)[O-])N3CCN(CC(=O)[O-])CCN(CC(=O)[O-])CC3)c2)CN(C2CCCCC2)c2ccccc21.[111In+3] (some centres unmarked) [[^111In]In-GAS2]	Criterion not met
CC(C)(C)C(=O)CN1C(=O)[C@H](NC(=O)Nc2cccc(C(=O)NCCOCCOCCOCCNC(=O)[C@@H](CCC(=O)O)NC(=O)CCC(C(=O)O)N3CCN(CC(=O)[O-])CCN(CC(=O)[O-])CCN(CC(=O)[O-])CC3)c2)CN(C2CCCCC2)c2ccccc21.[111In+3] (some centres unmarked) [[^111In]In-GAS3]	Criterion not met
CC(C)(C)C(=O)CN1C(=O)[C@H](NC(=O)Nc2cccc(C(=O)NCCOCCOCCOCCNC(=O)[C@H](CCC(=O)O)NC(=O)CCC(C(=O)O)N3CCN(CC(=O)[O-])CCN(CC(=O)[O-])CCN(CC(=O)[O-])CC3)c2)CN(C2CCCCC2)c2ccccc21.[67Ga+3] (stereo in doubt) [[^67Ga]Ga-GAS3]	Criterion not met
CC(C)(C)C(=O)CN1C(=O)[C@H](NC(=O)Nc2cccc(C(=O)NCCOCCOCCOCCNC(=O)[C@H](CCC(=O)O)NC(=O)CN3CCN(CC(=O)[O-])CCN(CC(=O)[O-])CCN(CC(=O)[O-])CC3)c2)CN(C2CCCCC2)c2ccccc21.[111In+3] (stereo in doubt) [[^111In]In-GAS1]	Criterion not met
